Assay: NCI Yeast Anticancer Drug Screen. Data for the mec2-1 strain (AID 157)
Conditions: S. cerevisiae mec2-1 strain, hits give high values; at 50.0 µM unless noted
Experimental: Growth inhibition of yeast strains with defined genetic alterations is measured as a screen for potential anti-cancer activity. Selected strains with alterations in DNA damage repair or cell cycle control were exposed to compounds and growth inhibition was measured relative to vehicle treated controls. The strain used in this assay is mec2-1
Compounds without any hit were thinned out: in the full panel of roughly 79,000, 15% have a hit.
For each entry below, report its growth inhibition value.
One number for each entry, in %.

• CCCCN1C(=O)CC2[C@@H]3CCc4cc(OC(C)=O)ccc4C3CC[C@]2(C)C1=O (stereo partly drawn) = 4.15

Below are some molecules; for each one, tell me its growth inhibition.
1. O=C1c2ccccc2C(=O)N1CCCCCCCCCCN1C(=O)c2ccccc2C1=O
2. CC12CCC([C@H](C(O)C3CCCCC3)C1=O)C2(C)C (stereo partly drawn)
3. Clc1cc2cc3cccc[n+]3cc2cc1Cl
4. CCCN(CCC)CC(O)CNc1cc(OC)cc2cccnc12 (stereo not drawn)
5. CCSc1[nH]c(Nc2nc(-c3ccccc3)n(-c3ccccc3)n2)c(C(N)=O)c1C(N)=O
6. CN(/C(=N/C(=S)NCc1ccccc1)SCc1ccccc1)c1ccccc1

Output:
1: -10.3; 2: -16.6; 3: 16.1; 4: -16.2; 5: 1.35; 6: 29.6

For each of the items listed, what is its growth inhibition?
1. CC(=O)OCCc1cc2ccccc2oc1=O
2. N#CC1(C(=O)c2ccccc2)C=Cc2ccccc2N1C(=O)c1ccccc1 (stereo not drawn)
3. COC1/C=C/OC2(C)Oc3c(C)c(O)c4c(O)c(c(C5SCCS5)c(O)c4c3C2=O)NC(=O)C(C)=C/C=C\C(C)C(O)C(C)C2OC(C)(C)OC(C1C)C2C (stereo not drawn)
4. CCOC(=O)CCC(NC(=O)OCc1ccccc1)C(=O)NNC(=O)OC(C)(C)C (stereo not drawn)
5. CC(C(=O)O)c1ccc(-c2ccccc2)cc1 (stereo not drawn)
6. CC1(C)OC(=O)C(Cc2ccccc2)(Cc2ccccc2)C(=O)O1

Output:
1: 23.9; 2: 16.4; 3: 33; 4: 22; 5: 13.3; 6: -19.9

Look up growth inhibition for the entries below, preserving their order.
1. N=C(N)c1ccc(NC(=S)Nc2ccc(C(=N)N)cc2)cc1
2. CC1(C)OC2OC3C(O)C(=O)OC3C2O1 (stereo not drawn)

Output:
1. 21.3
2. -16.9

###

assay: NCI Yeast Anticancer Drug Screen. Data for the mec2-1 strain (AID 157); conditions: S. cerevisiae mec2-1 strain, hits give high values; at 50.0 µM unless noted
This is part of a sample that, as a whole, favours compounds with a hit. Of some 79,000 tested, about 15% had one in any assay.
value_type: growth inhibition (%)
Give bare numbers, in %.

Record growth inhibition per entry; entries follow.
1. O=S(=O)(N/N=C/c1cccc(Cl)c1Cl)c1ccccc1
2. COc1ccc2c(c1)CCC1=C2CCC2(C)C1=CCS2(=O)=O (stereo unspecified)
3. O=C(O)c1cccc(S(=O)(=O)c2ccc([N+](=O)[O-])cc2)c1
4. CCOC(=O)C1CC2OC2CC1C(=O)OCC (stereo unspecified)
5. Cc1cccc(C)c1NS(=O)(=O)c1ccc(Cl)cc1
6. CCOC(OCC)C(=O)NC(Cc1ccccc1NC(=O)c1ccccc1)c1ccc2c(c1)OCO2 (stereo unspecified)
7. COc1cc(C)cc2c1C(C)(C)CCC2(C)C
8. COc1cc(C(=O)NNC(=O)c2ccc(Cl)c(Cl)c2)cc(OC)c1OC

Output:
[3, -5.6, 0.55, -36.9, 84.4, -1.05, -24.6, 33.9]

Hi! Can you tell me growth inhibition for each of these compounds?
1. NCCCC(=S)S
2. Nc1nc(=S)[nH]c(=S)[nH]1
3. C/C(CCCCCCCCCCCC/C(C)=N\Nc1ccc([N+](=O)[O-])cc1[N+](=O)[O-])=N/Nc1ccc([N+](=O)[O-])cc1[N+](=O)[O-]

Output:
12.6
19.4
5.25

###

experiment: NCI Yeast Anticancer Drug Screen. Data for the mlh1 rad18 strain (AID 175); conditions: S. cerevisiae mlh1 rad18 strain growth inhibition, hits give high values; at 50.0 µM unless noted
The panel holds about 79,000 compounds, 15% with a hit somewhere; the sample as a whole holds those more often.
Would you kindly list growth inhibition for each of these compounds?
Give bare numbers, in %.

* CN1C(C)(C)CC(=O)C(Br)C1(C)C (stereo not drawn) | -29.4
* O=C1c2ccccc2C(=O)C1c1ccc2ccccc2n1 | -7.95
* Cc1ccc(S(=O)(=O)N(CC(=O)c2ccccc2)c2ccc(Br)cc2)cc1 | 16.1
* COc1ccc(C2OC3=C(Nc4ccccc4N3)C2=O)cc1 (stereo not drawn) | 46.2
* O=C(NCCCl)Nc1c(Cl)cccc1Cl | -4.2
* Cc1cc2nc3c(C(OC4OC(CO)C(O)C(O)C4O)C(O)CO)nn(-c4ccc(F)cc4)c3nc2cc1C (stereo not drawn) | 1
* Cc1ccc(/C=C(/c2ccccc2)C(CC(=O)O)C(=O)O)cc1 (stereo not drawn) | -14.5
* NC(COC(=O)NCCCl)C(=O)O (stereo not drawn) | 18.6
* CCCCCCCS(=O)c1nc2ccccc2s1 (stereo not drawn) | 27.6
* O=C(O)COc1ccc(C2CCc3ccccc32)cc1 (stereo not drawn) | 0.7

List the reported growth inhibition of each compound below.
1. O=C(CC1C(=O)Nc2ccccc2S1=O)Nc1cc(Cl)ccc1Cl (stereo not drawn)
2. Nc1cncnc1N

Output:
-6.1
26.5

Task: Would you kindly share the measured growth inhibition for CCNC(=O)CCCC(=O)OC ?
Output: 2.2

###

I'd be grateful if you could share measured growth inhibition for these entries.
experiment: NCI Yeast Anticancer Drug Screen. Data for the mec2-1 strain (AID 157); details: S. cerevisiae mec2-1 strain, hits give high values; at 50.0 µM unless noted
Compounds without any hit were thinned out: in the full panel of roughly 79,000, 15% have a hit.
Give bare numbers, in %.

• O=C(C[n+]1cc(Br)cc2ccccc21)c1ccc(F)cc1 = 19.9

Return reported growth inhibition values for all items listed beneath this line.
1. CC1(O)CCCC1(C)O (stereo unspecified)
2. CCN(CC)c1nc(Cl)nc(Nc2ccc3cc(-c4ccccc4)c(=O)oc3c2)n1

Output:
-21.1
-24.9

###

Assay: NCI Yeast Anticancer Drug Screen. Data for the mlh1 rad18 strain (AID 175)
Conditions: S. cerevisiae mlh1 rad18 strain growth inhibition, hits give high values; at 50.0 µM unless noted
Experimental: Growth inhibition of yeast strains with defined genetic alterations is measured as a screen for potential anti-cancer activity. Selected strains with alterations in DNA damage repair or cell cycle control were exposed to compounds and growth inhibition was measured relative to vehicle treated controls. The strain used in this assay is mlh1 rad18
About 79,000 compounds went through this panel and 15% of them were active in at least one assay; those are over-represented in the sample as a whole.
value_type: growth inhibition (%)
One number for each entry, in %.

* CC1CCC2C(=O)OC(=O)C2C1 (stereo unspecified) | 4.7
* C=C1CCCC(C)(C)[C@@H]1CC/C(C)=C/Cn1c2cccc(=O)c-2nc2ccccc21 | 19.2
* Nc1cccc(OCCCCCOc2cccc(N)c2)c1 | -20.4

# batch size: 6; output growth inhibition per entry
1. CCCC(=O)N(CCC(C)C)c1ccccc1
2. O=C(O)c1cc(C(=O)C(=O)c2cc(C(=O)O)c(O)c3ccccc23)c2ccccc2c1O
3. CC1=Nc2ccccc2S/C1=C(/C)NNS(=O)(=O)c1ccc(C)cc1
4. O=[N+]([O-])c1ccccc1S(=O)(=O)c1cccc2c1NCCC2
5. COc1cc(C)cc2c1C(C)(C)CCC2(C)C
6. [CH3][Sn]([CH3])([S]P(=S)(c1ccccc1)c1ccccc1)[S]P(=S)(c1ccccc1)c1ccccc1

Output:
1. -7.8
2. -19.4
3. 18.1
4. 46.9
5. -0.65
6. 43.9

Return reported growth inhibition values for all items listed beneath this line.
1. CCCCCCCCCC(OCC)OCC
2. COC(=O)C(C(=O)OC)C1CCCC(=O)C1 (stereo unspecified)

Output:
1: -25.6; 2: 13.8

###

assay: NCI Yeast Anticancer Drug Screen. Data for the bub3 strain (AID 167); details: S. cerevisiae bub3 mutant strain, hits give high values; at 50.0 µM unless noted
Compounds without any hit were thinned out: in the full panel of roughly 79,000, 15% have a hit.
value_type: growth inhibition (%)
Answers are plain numbers, in %.

Use the examples below as a reference point.
* COCCN=Cc1ccc(N(C)C)cc1 | 7.45
* O=C(O)c1cc([N+](=O)[O-])c(O)c2ccccc12 | -16.1
* O=C1CSC(c2ccc(F)cc2F)N1c1nncs1 (configuration not stated) | -23.8
* O=c1c2ccccc2oc2c(Cl)cc(Cl)cc12 | -6.5

Consider the following items and state reported growth inhibition for each.
1. FC(F)(F)c1ccc2ccc3ccc(Cl)cc3c2c1
2. O=[N+]([O-])c1ccc(N=Cc2ccc(N(CCF)CCF)cc2)cc1
3. O=c1[nH][nH]c(=O)c2c([N+](=O)[O-])cccc12

Output:
1. 21.6
2. -9.2
3. 0.35
